target: Atx3 13Q (Homo sapiens, UniProt P54252, OF/POLYQ/Q/TRACT); assay: ThT fluorescence aggregation assay
Sequence (P54252 whole entry, change not shown): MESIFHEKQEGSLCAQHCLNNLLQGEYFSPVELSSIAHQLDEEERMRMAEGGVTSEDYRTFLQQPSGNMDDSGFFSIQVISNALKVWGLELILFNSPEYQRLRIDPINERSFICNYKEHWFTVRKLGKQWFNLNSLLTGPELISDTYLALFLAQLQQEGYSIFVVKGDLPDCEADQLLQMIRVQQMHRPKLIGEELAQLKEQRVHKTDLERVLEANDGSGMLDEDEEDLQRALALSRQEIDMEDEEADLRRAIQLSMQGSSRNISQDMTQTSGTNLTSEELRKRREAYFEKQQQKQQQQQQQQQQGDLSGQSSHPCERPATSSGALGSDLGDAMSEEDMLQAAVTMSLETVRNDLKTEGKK
Structures can show the parent of a compound that is named as a salt.
For each of the compounds below, state its pIC50.
Just the number, please; pIC50 means minus log10 of the concentration in mol/L.

The value of pIC50 measured for the compound `Cc1cc(C2CCCCC2)n(O)c(=O)c1` turned out to be 7.10

The value of pIC50 measured for the compound `O=C(O)CN(CCN(CC(=O)O)CC(=O)O)CCN(CC(=O)O)CC(=O)O` turned out to be 6.92

The value of pIC50 measured for the compound `Cc1ccc(C(=O)c2cc(O)c(O)c([N+](=O)[O-])c2)cc1` turned out to be 7.70

The value of pIC50 measured for the compound NCCc1ccc(O)c(O)c1 [dopamine hydrochloride] turned out to be 6.96
